target: Oxytocin receptor (Homo sapiens); test: oxytocin receptor activation by calcium flux – fluorescence, CHO-OTR cells, Fluo-8 calcium, primary screen (AID 2435); settings: Fluo-8 calcium fluorescence, at 3 µM, hits give high values, normalized: DMSO 0%, oxytocin 100%;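 note: peak over basal fluorescence ratio from a 100 s FLIPR kinetic read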
The whole screen tested about 320,000 compounds, of which about 1,000 (0.31%) were called active. Shown is part of a subset that was picked to be rich in actives.

>  <compound>
C=CCOc1cccc(C2C(C(=O)c3ccc(C)o3)=C(O)C(=O)N2c2nnc(C)s2)c1 (stereo not given)

>  <tgt>
Oxytocin receptor (Homo sapiens)

>  <u>
%

>  <activation>
47.7

$$$$
>  <compound>
O=C(CSc1ncnc2sccc12)N1CCN(C(=O)c2cccs2)CC1

>  <tgt>
Oxytocin receptor (Homo sapiens)

>  <u>
%

>  <activation>
1.17

$$$$
>  <compound>
O=S(=O)(c1cccc(Cn2nnc(-c3ccc(F)cc3)n2)c1)N1CCOCC1

>  <tgt>
Oxytocin receptor (Homo sapiens)

>  <u>
%

>  <activation>
18.4

$$$$
>  <compound>
Cc1ccc2c(c1)N(CC(=O)N1CCC(C)CC1)C(=O)c1cccnc1O2

>  <tgt>
Oxytocin receptor (Homo sapiens)

>  <u>
%

>  <activation>
1.7

$$$$
>  <compound>
Cc1cc(N)n2nc(-c3ccc(C(C)(C)C)cc3)cc2n1

>  <tgt>
Oxytocin receptor (Homo sapiens)

>  <u>
%

>  <activation>
-1.18

$$$$

* * *

biological target: Oxytocin receptor (Homo sapiens); test: oxytocin receptor activation by calcium flux – fluorescence, CHO-OTR cells, Fluo-8 calcium, primary screen (AID 2435); settings: Fluo-8 calcium fluorescence, at 3 µM, hits give high values, normalized: DMSO 0%, oxytocin 100%;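 note: peak over basal fluorescence ratio from a 100 s FLIPR kinetic read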
Screen size: about 320,000 compounds; about 1,000 (0.31%) were called active. What follows is part of a selection rich in actives, with near analogues and random picks from the rest.
Would you please tag the item True when its activation is 20% or above, and False when it is below?

>  <molecule>
Nc1ccc2nc3c(=O)[nH]c(=S)[nH]c3nc2c1

>  <category label>
True

$$$$
>  <molecule>
COc1cc(/C=C2/SC(=S)N(Cc3ccccc3)C2=O)cc(OC)c1O

>  <category label>
True

$$$$
>  <molecule>
COc1cc(OC)cc(C(=O)N[C@H](C(=O)OCC(=O)NC(C)c2ccccc2)C(C)C)c1 (stereo partly drawn)

>  <category label>
True

$$$$
>  <molecule>
Cc1nc(C(=O)Nc2ccc(Cl)cc2)sc1C1(C)CC(c2ccccc2)=NO1 (stereo not drawn)

>  <category label>
False

$$$$
>  <molecule>
COc1cccc2cc(S(=O)(=O)c3ccc(C)cc3)/c(=N/NS(=O)(=O)c3ccc(C)cc3)oc12

>  <category label>
False

$$$$
>  <molecule>
O=C(Nc1ccc(S(=O)(=O)Nc2ncccn2)cc1)C12CC3CC(CC(C3)C1)C2

>  <category label>
False

$$$$
>  <molecule>
Cc1ccc(O)c(NC(=S)NC(=O)COc2ccc(Br)cc2)c1

>  <category label>
True

$$$$
>  <molecule>
COc1ccc(/C=C2\SC(=S)N(CCCC(=O)NC3CCCC3)C2=O)cc1OC

>  <category label>
False

$$$$
>  <molecule>
COc1cc(C(CCN2CCN(c3ccccc3)CC2)c2c(OC)cc(OC)c3ccc(=O)oc23)cc(OC)c1OC (stereo not drawn)

>  <category label>
True

$$$$
>  <molecule>
O=C(Cc1c(F)cccc1Cl)Nc1ncc([N+](=O)[O-])s1

>  <category label>
False

$$$$
>  <molecule>
NC(=O)C1=C[C@H](c2csc3ccccc23)C[C@H](OCc2ccc(CO)cc2)O1

>  <category label>
True

$$$$
>  <molecule>
CCc1c(C)sc(NC(=O)OC)c1C(=O)N1CCOCC1

>  <category label>
False

$$$$
>  <molecule>
O=C(NC1CC1)C1=C[C@H](c2c[nH]c3ccccc23)C[C@H](OCc2ccc(CO)cc2)O1

>  <category label>
False

$$$$
>  <molecule>
C[C@@H]1O[C@@H](OC[C@H]2O[C@@H](Oc3c(-c4ccc(O)cc4)oc4cc(O)cc(O)c4c3=O)[C@H](O)[C@@H](O)[C@@H]2O)[C@H](O)[C@H](O)[C@H]1O

>  <category label>
False

$$$$
>  <molecule>
CN(C)c1ccc(/C=C2\NC(=S)N(Cc3ccccc3)C2=O)cc1

>  <category label>
True

$$$$
>  <molecule>
CN(C)CCCN(C(=O)c1ccc(S(=O)(=O)N2CCCCCC2)cc1)c1nc2ccc(Br)cc2s1

>  <category label>
True

$$$$
>  <molecule>
c1ccc(C2CNCc3c2ccc2ccccc32)cc1 (stereo not drawn)

>  <category label>
True

$$$$
>  <molecule>
O=C(Nc1ccc(-n2ccnc2P(=O)(O)c2ccccc2)cc1)c1ccccc1Br

>  <category label>
False

$$$$
>  <molecule>
CN(C)S(=O)(=O)c1ccc(NC(=O)N2CCOCC2)cc1

>  <category label>
False

$$$$
>  <molecule>
CCS(=O)(=O)N1CCCC(C(=O)NCCCN(C)Cc2ccccc2)C1 (stereo not drawn)

>  <category label>
False

$$$$
>  <molecule>
CN(CCc1ccccc1)C(=O)c1cccc(NC(=O)Cc2ccc([N+](=O)[O-])cc2)c1

>  <category label>
False

$$$$
>  <molecule>
Cc1ccc(S(=O)(=O)N(CC(=O)NN=C2CCN(C)CC2)c2ccc(F)cc2)cc1

>  <category label>
False

$$$$
